The measured values listed here are drawn from ChEMBL document CHEMBL1122889.

- Assayed Target: Pancreatic elastase (Sus scrofa) (UniProt P08419+P00772)
- Experiment: k3 value was evaluated for the inhibition of porcine pancreatic Elastase
- Format: protein assay
Sorting guide: entries reporting k3 beneath 0.002 s⁻¹ go in the rule met pile, the rest go in the rule not met pile.

Consider the worked cases shown below.
[
  {
    "Compound": "CCCCNC(=O)n1cnc(C)c1",
    "Classification": "rule met"
  },
  {
    "Compound": "CCCCC(NC(=O)n1ccnc1)C(=O)OC (stereo not drawn)",
    "Classification": "rule not met"
  }
]

Would you kindly look at the next entry?
Lab note: k3 threshold 0.002 s⁻¹. Does this compound come in strictly under it? CCCCNC(=O)n1ccnc1C rule not met
